- Assay Text: Acute toxicity (mortality, LD50) in mice
- Assay type: in vivo
- Reported Conditions: in vivo, ip; mouse, intraperitoneal, 1000 mg/kg; read-out: mortalité
Property: mortality (%)
Write the value in % as a bare number.

Retrieve mortality measured for Cc1cc(OCCN(C)CCOc2cc(C)c(O)cc2C(C)C)c(C(C)C)cc1O [COR28 35] and print it.
40

----------
- Assay Text: Acute toxicity (mortality, LD50) in mice
- Assay type: in vivo
- Reported Conditions: in vivo; mouse, intravenous; limits in brackets; read-out: DL50 (the source's name)
Property: LD50

Identify LD50 associated with the molecule `Cc1cc(OCCN(C)CCOc2cc(C)c(O)cc2C(C)C)c(C(C)C)cc1O`
53.5 mg/kg

Recorded values, source patent EP0188169A1.
